# Experiment notes: qHTS assay for identifying genotoxic compounds that show differential cytotoxicity against isogenic chicken DT40 cell lines with known DNA damage response pathways - Rad54/Ku70 mutant cell line (AID 743015); further: nearly all actives have a fitted effect of over 60% in size
# Recorded conditions: DT40 Rad54/Ku70 mutant viability, CellTiter-Glo, 40 h; series mostly up to 66.8 µM
Inconclusive results are not listed. The source made the active and inactive calls. The call rests on the fitted dose curve; in most records, active means well fitted cell-killing curve with a large enough effect in the repeat runs; inconclusive means weak or mixed curves; inactive means no such curve, though single readings can be large or run the other way.
Pick one and only one: 1 = active, -1 = inactive

See these solved cases before continuing.
Molecule	Class label
NCc1ccccc1CC(=O)N[C@@H]1C(=O)N2C(C(=O)O)=C(CSc3nnnn3CC(=O)O)CS[C@H]12	-1
Nc1ccn(C[C@@H](CO)OCP(=O)(O)O)c(=O)n1	-1
O=P(O)(O)OC(CO)CO	-1

stdin: Test call, this molecule: O=[N+]([O-])O[C@@H]1CO[C@H]2[C@@H]1OC[C@@H]2O
stdout: -1

stdin: Test call, this molecule: N#CC(c1ccc(Cl)cc1)c1c(Cl)cc(-n2ncc(=O)[nH]c2=O)cc1Cl (configuration not stated)
stdout: 1

stdin: Test call, this molecule: O=C(/C=C/c1cccc(F)c1)NC1CC1
stdout: -1

stdin: Test call, this molecule: CCOC(=O)C1=C[C@@H](OC(CC)CC)[C@H](NC(C)=O)[C@@H](N)C1
stdout: -1

stdin: Test call, this molecule: COc1ccc(C(=O)CCC(=O)O)c2ccccc12
stdout: -1

stdin: Test call, this molecule: O=C(O)c1cc2ccccc2c(Cc2c(O)c(C(=O)O)cc3ccccc23)c1O
stdout: -1

stdin: Test call, this molecule: N[C@H](CC(=O)O)C(=O)O
stdout: -1

stdin: Test call, this molecule: CCC(C)[C@@H](N)C(=O)O (some centres not stated)
stdout: -1

stdin: Test call, this molecule: CCN(CC)CCOc1ccc(-c2nc3cc(Cl)ccc3s2)cc1
stdout: 1
